Data origin: the supplement of paper PMC12669032

- Tested on: Parabacteroides merdae
- ASSAY_NOTES: growth AUC relative to DMSO control (median of replicates) (fraction); higher = more growth (less inhibition), active = hit call of the paper
- CONDITION_DESCRIPTION: 20 µM; 24 h
Exercise: for every item that follows, state its recorded growth AUC.
Lab note: jot down the number only; don't add units.

query: growth AUC lookup needed for `CCCCCCCCc1c(CC)nc2ncnn2c1N` , thanks.
result: 0.964

query: growth AUC lookup needed for `CN(C)C(=O)Nc1cc(C(C)(C)C)on1` , thanks.
result: 1

query: growth AUC lookup needed for `CC(C)(SC(=O)N1CCCCC1)c1ccccc1` , thanks.
result: 0.965

###

- Test system: Odoribacter splanchnicus
- ASSAY_NOTES: growth AUC relative to DMSO control (median of replicates) (fraction); higher = more growth (less inhibition), active = hit call of the paper
- CONDITION_DESCRIPTION: 20 µM; 24 h
# cutoff 1 applies to growth AUC; >= gives True, < gives False

query: growth AUC >= 1 for `Cc1ccc(Cl)cc1` ?
result: False

query: growth AUC >= 1 for `CN(C)C=O` ?
result: True

###

Exercise: for every item that follows, state its recorded growth AUC.
- Tested on: Akkermansia muciniphila
- ASSAY_NOTES: growth AUC relative to DMSO control (median of replicates) (fraction); higher = more growth (less inhibition), active = hit call of the paper
- CONDITION_DESCRIPTION: 20 µM; 24 h

query: growth AUC lookup needed for `S=C([S-])NCCNC(=S)[S-].[Mn+2]` , thanks.
result: 0.999 (inactive)

query: growth AUC lookup needed for `[O-][n+]1nc(-n2ccnc2)nc2ccc(Cl)cc21` , thanks.
result: 0.972 (inactive)

query: growth AUC lookup needed for `COc1c(Cl)ccc(Cl)c1C(=O)O` , thanks.
result: 0.878 (inactive)

query: growth AUC lookup needed for `CCCOC(=O)c1ccc(O)cc1` , thanks.
result: 0.879 (inactive)

query: growth AUC lookup needed for `CC(C)N(C(=O)CS(=O)(=O)[O-])c1ccc(F)cc1.[Na+]` , thanks.
result: 0.977 (inactive)

query: growth AUC lookup needed for `CCOC(=O)CSc1nc(C(C)(C)C)nn1C(=O)N(C)C` , thanks.
result: 1.03 (inactive)

###

- System: Bacteroides thetaiotaomicron
- ASSAY_NOTES: growth AUC relative to DMSO control (median of replicates) (fraction); higher = more growth (less inhibition), active = hit call of the paper
- CONDITION_DESCRIPTION: 20 µM; 24 h
QUANTITY_MEASURED: growth AUC
Lab note: jot down the number only; don't add units.

query: growth AUC lookup needed for `CCCCCCCCSCCO` , thanks.
result: 0.975

query: growth AUC lookup needed for `CCc1cccc(CC)c1N(COC)C(=O)CS(=O)(=O)[O-].[Na+]` , thanks.
result: 0.876

query: growth AUC lookup needed for `CS(=O)(=O)c1ccc(C(=O)O)c(N)c1` , thanks.
result: 0.994

query: growth AUC lookup needed for `C=CCc1ccc(O)c(OC)c1` , thanks.
result: 0.967

query: growth AUC lookup needed for `CCCCCCCCCCCC[N+](C)(C)Cc1ccc(CC)cc1.[Cl-]` , thanks.
result: 0.00582

query: growth AUC lookup needed for `CC(C)NS(=O)(=O)NC(=O)c1cc(NC(N)=O)c(F)cc1Cl` , thanks.
result: 0.808

query: growth AUC lookup needed for `CNC(=O)/C(=N/OC)c1ccccc1CO/N=C(C)/C(=N/OC)C(/C)=N/OC` , thanks.
result: 0.976

query: growth AUC lookup needed for `CCCOC(=O)c1ccc(C(=O)OCCC)nc1` , thanks.
result: 1.02

query: growth AUC lookup needed for CC(C)C1C2CCC1c1c(NC(=O)c3cn(C)nc3C(F)F)cccc12 (configuration not stated) , thanks.
result: 0.906

query: growth AUC lookup needed for `Cc1cc(C)cc(O)c1` , thanks.
result: 1.01

query: growth AUC lookup needed for `CC(C)Nc1nc(N)nc(Cl)n1` , thanks.
result: 1.04

query: growth AUC lookup needed for `CCCNCCOc1c(Cl)cc(Cl)cc1Cl` , thanks.
result: 0.979
